I'd appreciate it if you could supply self-cleavage values for the items below.
B1: Twister Ribozyme (parent)
chain: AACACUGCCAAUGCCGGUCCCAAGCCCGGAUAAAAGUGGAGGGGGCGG

variants of: B1; experiment: self-cleavage, relative activity (ratio to wild type); higher = more cleavage; co-transcriptional
Numbers only.

Here are 5 variants together with their reported answers.
VARIANT_ANNOTATION | NUMERIC_VALUE
C8G G16A | 0.061
A32U G44U | 0.885
C15U C21U | 0.101
A30G A40G | 0.187
G17C U31C | 0.115

Can you give me self-cleavage for all of these, one by one?
1. C3U A4U
2. G41U C46A
3. C9G G29A

1. 0.12
2. 0.512
3. 0.596
